Just for reference, PubChem BioAssay (NCI) is where these values come from.

Below, each of the compounds is paired with its reported growth value.
Tested on: TK-10 renal
Protocol Text: NCI-60 one-dose screen, 48 h (100 = growth as untreated, 0 = no growth, -100 = all killed)
Particulars: 10 µM unless noted
The panel holds about 83,000 compounds, 20% with a hit somewhere; the sample as a whole holds those more often.
Quick reminder: number only, in %, skip the unit.

Below, 4 compounds whose answers are already recorded.
O=[N+]([O-])c1ccc(O)c2ncccc12	83.2
Cc1nc2cc(Nc3nc(N4CCCCC4)nc(N4CCOCC4)n3)ccc2n1Cc1ccccc1	-32.9
Cc1ccc(C2SCC(=O)N2NC(=O)c2[nH]c3ccc(F)cc3c2-c2ccccc2)cc1 (stereo not given)	108
COc1ccc(OC)c2ncccc12	108

Now examine the next entry.
**Q:** growth for Cn1c2c(cc(S(=O)(=O)c3ccccc3)c1=O)CCc1c-2cnn1-c1ccccc1Cl ?
**A:** 122

====

Tested on: SK-MEL-28 melanoma
Protocol Text: NCI-60 one-dose screen, 48 h
Particulars: 10 µM unless noted
The panel holds about 83,000 compounds, 20% with a hit somewhere; the sample as a whole holds those more often. Active and inactive are the calls of the source. How the source made its calls: active means growth percent below 10; inactive means the rest.
Permitted responses: label 1 for active, label 0 for inactive

Some entries whose results are on file:
CCCCNNC(=O)c1ccc(Br)cc1	label 0
Nc1nc(N)c(N=Nc2c(Br)cc(S(N)(=O)=O)cc2Br)c(N)n1	label 0
CCN(CC)c1ccc(/C=C(\C#N)c2cc3ccccc3[nH]2)cc1	label 0

**Q:** Status in this test for COc1ccc(-c2nc(Nc3ccc(F)cc3)nc(Nc3ccc4c(c3)nc(C)n4Cc3ccccc3)n2)cc1 ?
**A:** label 0

**Q:** Try this molecule next: Cl.Fc1c[c-]c(-c2ccccn2)c(F)c1.[Pt].c1ccc([PH+](CC[PH+](c2ccccc2)c2ccccc2)c2ccccc2)cc1
**A:** label 1

**Q:** Try this molecule next: COc1nc2c(cc1S(=O)(=O)c1ccccc1)CCc1c-2cnn1-c1cccc(Cl)c1
**A:** label 0

**Q:** Try this molecule next: CC(C)(C)[Si](C)(C)OC1[C@@H](O[Si](C)(C)C(C)(C)C)[C@@H](CNC(=O)NC(=O)C(F)(F)F)O[C@H]1n1cnc2c(NC(=O)Nc3ccccc3)ncnc21 (some centres undefined)
**A:** label 0

**Q:** Try this molecule next: CCCCCn1c(=N)n(CC(O)COc2cccc(C)c2)c2ccccc21 (centres undefined)
**A:** label 0

**Q:** Try this molecule next: COc1cc(-c2nc(SC(C)C)nc(Nc3ccccc3C)c2C#N)cc(OC)c1OC
**A:** label 0

====

Tested on: A549/ATCC NSCLC
Protocol Text: NCI-60 one-dose screen, 48 h (100 = growth as untreated, 0 = no growth, -100 = all killed)
Particulars: 10 µM unless noted
About 83,000 compounds went through this panel and 20% of them were active in at least one assay; those are over-represented in the sample as a whole.
Below, each of the compounds is paired with its reported growth value.
Quick reminder: number only, in %, skip the unit.

Below, 4 compounds whose answers are already recorded.
O=C1CCC(N2C(=O)c3cccc(NCCOCCOCCNC(=O)c4cc5c(o4)C(=O)c4ccccc4C5=O)c3C2=O)C(=O)N1 (stereo not given)	-30.2
Cc1ccccc1-c1cc(-c2ccc(Br)s2)[nH]c(=O)c1C#N	107
O=C1C(OCCOc2ccccc2)=C(OCCOc2ccccc2)C(=O)c2ccccc21	17.4
CSC1=CC(=O)c2ccccc2C1=O	99.1

Now examine the next entry.
**Q:** Recall the recorded growth for O=C(Nc1ccc(F)cc1)c1ccc(C(=O)Nc2ccc(F)cc2)cc1 with A549/ATCC NSCLC and state it.
**A:** 98.9
